assay.info: NCI Yeast Anticancer Drug Screen. Data for the mlh1 rad18 strain (AID 175)
condition.summary: S. cerevisiae mlh1 rad18 strain growth inhibition; at 50.0 µM
This is part of a sample that, as a whole, favours compounds with a hit. Of some 79,000 tested, about 15% had one in any assay. Calls of active or inactive are those of the source. Rule as the data show it: active = growth inhibition above about 70%; inactive = the rest.
Labels: active, inactive

compound: O=[N+]([O-])/C(C(Cl)=C(Cl)Cl)=C(/Cl)SCc1ccccc1
answer.label: active
--
compound: ClC1c2ccccc2Cc2cccnc21 (configuration not stated)
answer.label: inactive
--
compound: CCC(CC)N(CCNc1cc(OC)cc2cccnc12)CC(C)C
answer.label: inactive
--
compound: C/C(=C/CC1CCC2C3=CCC4CC(O)CCC4(C)C3CCC12C)C(C)C(C)C (configuration not stated)
answer.label: active
--
compound: CC(/C=C1\C(=O)N(C)C(CC(C)C(Cl)(Cl)Cl)C(=O)N1C)C(Cl)(Cl)Cl (configuration not stated)
answer.label: active
--
compound: C=C1C(=O)OC2/C=C(\C(=O)O)CC/C=C(\C)CC(OC(=O)/C=C(\C)CC)C12 (configuration not stated)
answer.label: active
--
compound: CCCCN(CCCC)CC(O)c1cc(-c2ccc(Cl)cc2)nc2cc(C)ccc12 (configuration not stated)
answer.label: active
--
compound: O=C(Nc1ccc(Cl)cc1)OCC1C2C=CC(C2)C1CO (configuration not stated)
answer.label: active
--
compound: CC(C)(C)N1OC2(c3ccccc3)OC3N(C(C)(C)C)OC4(c5ccccc5)OC1C2(c1ccccc1)C34c1ccccc1 (configuration not stated)
answer.label: active
--
compound: Cc1cc(C)c(O)c(C2CC3CCC2(C)C3(C)C)c1 (configuration not stated)
answer.label: active
--
compound: COc1ccc(NC2Oc3cc4c(cc3C(c3cccc(OC)c3OC)C2C)OCO4)cc1 (configuration not stated)
answer.label: active
--
compound: CC1C(=O)C(Br)CC2C1(C)CCC1C2(C)CCC2(C)C3CC(C)(C)CCC3(C)CCC12C (configuration not stated)
answer.label: inactive
--
compound: O=C1C=CCCCC1(c1ccccc1)c1ccccc1
answer.label: active
--
compound: COC1/C=C\OC2(C)Oc3c(C)c(O)c4c(c3C2=O)C(=O)C=C(NC(=O)C(C)=C/C=C\C(C)C(O)C(C)C2OC(C)(C)OC(C1C)C2C)C4=O (configuration not stated)
answer.label: inactive
--
compound: O=C(Nc1cccnc1)c1ccc(CSc2ccc(Cl)cc2)o1
answer.label: active
--
compound: C=CC1(C)CCC2C(=CCC3C(C)(COC4OC(CO)C(O)C(O)C4O)C(O)CCC23C)C1 (configuration not stated)
answer.label: active
--
compound: CC(O)(c1ccccc1)c1ccccc1S(=O)(=O)Nc1ccccc1 (configuration not stated)
answer.label: active
